All figures here come from the supplement of paper PMC8617591.

For each record, write down the corresponding AUC25.
# Test system: Mycobacterium tuberculosis Erdman (autoluminescent)
# assayProcedure: AUC25, normalised area under dose response up to IC25 (three-drug combination) (fraction (0-1)); higher = more potent at low dose
# measurementSetup: in vitro model: cholesterol-high 0.2 mM; time point: constant (~7 days, model-specific)

Q: What does the data say about its AUC25? Entry: NNC(=O)c1ccncc1 [isoniazid] + COc1c(N2C[C@@H]3CCCN[C@@H]3C2)c(F)cc2c(=O)c(C(=O)O)cn(C3CC3)c12 [moxifloxacin] + O=[N+]([O-])c1cn2c(n1)OC[C@@H](OCc1ccc(OC(F)(F)F)cc1)C2 [pretomanid]
A: 0.0779

Q: Then what about the compound CC(=O)NC[C@H]1CN(c2ccc(N3CCOCC3)c(F)c2)C(=O)O1 [linezolid] + NC(=O)c1cnccn1 [pyrazinamide] + CO[C@H]1/C=C/O[C@@]2(C)Oc3c(C)c(O)c4c(O)c(c(/C=N/N5CCN(C6CCCC6)CC5)c(O)c4c3C2=O)NC(=O)/C(C)=C\C=C\[C@H](C)[C@H](O)[C@@H](C)[C@@H](O)[C@@H](C)[C@H](OC(C)=O)[C@@H]1C [rifapentine] ?
A: 0.112

Q: Then what about the compound CC[C@@H](CO)NCCN[C@@H](CC)CO [ethambutol] + NNC(=O)c1ccncc1 [isoniazid] + CC(=O)NC[C@H]1CN(c2ccc(N3CCOCC3)c(F)c2)C(=O)O1 [linezolid] ?
A: 0.102

Q: Then what about the compound CC(=O)NC[C@H]1CN(c2ccc(N3CCOCC3)c(F)c2)C(=O)O1 [linezolid] + COc1c(N2C[C@@H]3CCCN[C@@H]3C2)c(F)cc2c(=O)c(C(=O)O)cn(C3CC3)c12 [moxifloxacin] + NC(=O)c1cnccn1 [pyrazinamide] ?
A: 0.106

Q: Then what about the compound O=[N+]([O-])c1cn2c(n1)OC[C@@H](OCc1ccc(OC(F)(F)F)cc1)C2 [pretomanid] + NC(=O)c1cnccn1 [pyrazinamide] + CO[C@H]1/C=C/O[C@@]2(C)Oc3c(C)c(O)c4c(O)c(c(/C=N/N5CCN(C)CC5)c(O)c4c3C2=O)NC(=O)/C(C)=C\C=C\[C@H](C)[C@H](O)[C@@H](C)[C@@H](O)[C@@H](C)[C@H](OC(C)=O)[C@@H]1C ?
A: 0.071

Q: Then what about the compound COc1nc2ccc(Br)cc2cc1[C@@H](c1ccccc1)[C@@](O)(CCN(C)C)c1cccc2ccccc12 [bedaquiline] + NNC(=O)c1ccncc1 [isoniazid] + O=[N+]([O-])c1cn2c(n1)OC[C@@H](OCc1ccc(OC(F)(F)F)cc1)C2 [pretomanid] ?
A: 0.0717

Q: Then what about the compound CC(C)/N=c1\cc2n(-c3ccc(Cl)cc3)c3ccccc3nc-2cc1Nc1ccc(Cl)cc1 [clofazimine] + CC[C@@H](CO)NCCN[C@@H](CC)CO [ethambutol] + CC(=O)NC[C@H]1CN(c2ccc(N3CCOCC3)c(F)c2)C(=O)O1 [linezolid] ?
A: 0.129

Q: Then what about the compound COc1nc2ccc(Br)cc2cc1[C@@H](c1ccccc1)[C@@](O)(CCN(C)C)c1cccc2ccccc12 [bedaquiline] + COc1c(N2C[C@@H]3CCCN[C@@H]3C2)c(F)cc2c(=O)c(C(=O)O)cn(C3CC3)c12 [moxifloxacin] + CO[C@H]1/C=C/O[C@@]2(C)Oc3c(C)c(O)c4c(O)c(c(/C=N/N5CCN(C)CC5)c(O)c4c3C2=O)NC(=O)/C(C)=C\C=C\[C@H](C)[C@H](O)[C@@H](C)[C@@H](O)[C@@H](C)[C@H](OC(C)=O)[C@@H]1C [rifampicin] ?
A: 0.057
